Biological target: human cholecystokinin-2 receptor (CCK-2R) (Homo sapiens)
Construct: host or cells: 1321-N1 cells (plasma membranes prepared by Evotec AG Hamburg)
Sequence (P32239 whole entry): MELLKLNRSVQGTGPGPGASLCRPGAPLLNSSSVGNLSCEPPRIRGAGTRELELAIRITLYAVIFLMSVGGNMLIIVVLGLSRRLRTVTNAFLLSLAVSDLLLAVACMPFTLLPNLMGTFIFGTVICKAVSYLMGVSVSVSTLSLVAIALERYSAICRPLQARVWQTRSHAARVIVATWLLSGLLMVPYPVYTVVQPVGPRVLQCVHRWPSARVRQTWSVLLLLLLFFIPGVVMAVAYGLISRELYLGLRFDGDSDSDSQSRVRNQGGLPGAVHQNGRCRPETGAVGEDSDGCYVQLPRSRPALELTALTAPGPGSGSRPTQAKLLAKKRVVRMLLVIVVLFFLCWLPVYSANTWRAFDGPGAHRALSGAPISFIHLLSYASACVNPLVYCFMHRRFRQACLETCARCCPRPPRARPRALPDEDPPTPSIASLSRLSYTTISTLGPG
Test: In vitro receptor binding to CCK-2R, SPA displacement of [125I]-CCK-8s from plasma membranes
Starred links: 1 amine or outer side, 2 acyl side, 3 side chain; linkers in the order of their positions; H or OH if unused. Non-standard residues stand in square brackets, D forms with d. Residues, ends and D or L forms follow the SMILES beside them. *: point of attachment. Phe(4-CH2SO3H) = N[C@@H](Cc1ccc(CS(=O)(=O)O)cc1)C(=O)O; C18 diacid = O=C(O)CCCCCCCCCCCCCCCCC(=O)*; C16 diacid = O=C(O)CCCCCCCCCCCCCCC(=O)*; γGlu = O=C(O)[C@H](CCC(=O)[*:2])N[*:1]; NMeF = CN[C@@H](Cc1ccccc1)C(=O)O; dNMeD = CN[C@H](CC(=O)O)C(=O)O; Nle = CCCC[C@H](N)C(=O)O; AEEA = NCCOCCOCC(=O)O

compound	limit operator	IC50 / nM
CCCC[C@H](NC(=O)[C@H](Cc1c[nH]c2ccccc12)NC(=O)CNC(=O)[C@H](CC(C)C)NC(=O)[C@H](Cc1ccc(CS(=O)(=O)O)cc1)NC(=O)[C@H](CC(=O)O)NC(=O)COCCOCCNC(=O)COCCOCCNC(=O)CC[C@H](NC(=O)CCCCCCCCCCCCCCC(=O)O)C(=O)O)C(=O)N(C)[C@H](CC(=O)O)C(=O)N(C)[C@@H](Cc1ccccc1)C(N)=O [Example 6] ({C16 diacid-γGlu-AEEA-AEEA}-D[Phe(4-CH2SO3H)]LGW[Nle][dNMeD][NMeF]-NH2)	>	10000
CCCC[C@H](NC(=O)[C@H](Cc1c[nH]c2ccccc12)NC(=O)CNC(=O)[C@H](CC(C)C)NC(=O)[C@H](Cc1ccc(CS(=O)(=O)O)cc1)NC(=O)[C@H](CC(=O)O)NC(=O)COCCOCCNC(=O)COCCOCCNC(=O)CC[C@H](NC(=O)CCCCCCCCCCCCCCCCC(=O)O)C(=O)O)C(=O)N(C)[C@H](CC(=O)O)C(=O)N(C)[C@@H](Cc1ccccc1)C(N)=O [Example 5] ({C18 diacid-γGlu-AEEA-AEEA}-D[Phe(4-CH2SO3H)]LGW[Nle][dNMeD][NMeF]-NH2)	=	380
